The origin of these recorded values is PubChem BioAssay (Tox21).

Molecular target: Peroxisome proliferator-activated receptor delta (Homo sapiens) (UniProt Q03181)
Sequence (Q03181 whole entry, looked up): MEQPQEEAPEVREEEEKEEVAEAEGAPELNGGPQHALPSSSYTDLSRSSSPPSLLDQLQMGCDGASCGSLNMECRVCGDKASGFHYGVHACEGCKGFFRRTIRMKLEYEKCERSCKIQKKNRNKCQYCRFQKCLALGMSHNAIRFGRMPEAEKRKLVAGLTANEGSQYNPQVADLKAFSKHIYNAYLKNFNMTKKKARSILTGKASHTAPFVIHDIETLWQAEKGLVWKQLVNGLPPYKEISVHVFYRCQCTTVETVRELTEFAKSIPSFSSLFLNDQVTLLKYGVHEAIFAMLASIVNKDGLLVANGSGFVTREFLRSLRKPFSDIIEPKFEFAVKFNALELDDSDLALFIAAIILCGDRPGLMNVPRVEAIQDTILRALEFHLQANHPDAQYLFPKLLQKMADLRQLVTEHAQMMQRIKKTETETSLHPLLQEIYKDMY
Assay: qHTS assay to identify small molecule antagonists of the peroxisome proliferator-activated receptor delta (PPARd) signaling pathway (AID 743215);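 further: cells stimulated with agonist L165041 at 300 nM final during compound exposure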
Conditions: HEK293H PPARd-UAS-bla, beta-lactamase FRET ratio, antagonist, 17 h; series mostly up to 62 µM
Results filed as inconclusive are left out. Calls of active or inactive are those of the source. The call rests on the fitted dose curve; in most records, active means well fitted inhibition curve with a large enough effect in the signal ratio in the repeat runs (not every such curve was filed as active); inconclusive means weak or mixed curves, or effect the other way; inactive means no such curve, though single readings can be large or run the other way; the % refers to the signal ratio.
Classes used: active, inactive

• CCOP(=S)(OCC)Oc1ccc(S(C)=O)cc1 (stereo not given) = inactive
• CC(C)(C#N)C(C)(C)C#N = inactive
• CN(C1CCCCC1)C1CCCCC1 = inactive
• COC1=CC(=O)O[C@@H](/C=C/c2ccc3c(c2)OCO3)C1 = inactive
• O=C1c2ccccc2C(=O)N1SC(Cl)(Cl)Cl = active
• OCC1CO1 (stereo not given) = inactive
• CCNC(=O)NC(=O)/C(C#N)=N/OC = inactive
• CC(Oc1cc(Cl)c(Cl)cc1Cl)C(=O)O (stereo not given) = inactive
• CON(C)C(=O)Nc1ccc(Cl)cc1 = inactive
• CCCCC(CC)CO[N+](=O)[O-] (stereo not given) = inactive
• CCCCCCCCP(=O)(O)O = inactive
• COc1ccccc1N1CCNCC1 = inactive
• CCC[N+](CCC)(CCC)CCC = inactive
• CCOP(=O)(O)C(N)=O = inactive
• Cc1ccc2c(C)cccc2c1 = inactive
